System: Madurella mycetomatis MM55
PROTOCOL SUMMARY: growth relative to untreated control; higher = less inhibition, active = 20 or less
EXPERIMENTAL CONTEXT: 100 µM
Allowed answers: yes for active, no for inactive

{"SMI": "CN[C@@H]1[C@H](O)[C@H](NC)[C@H]2O[C@@]3(O)C(=O)C[C@@H](C)O[C@H]3O[C@@H]2[C@H]1O", "ASSAYED TARGET": "Madurella mycetomatis MM55", "CAT": "no"}

Challenge: Recorded call for COc1ccc(-n2nc(C(N)=O)c3c2C(=O)N(c2ccc(N4CCCCC4=O)cc2)CC3)cc1 ?
Response given: no

Challenge: Subsequent entry: CC(C)C[C@H](NC(=O)[C@@H](NC(=O)c1cccc(-c2ccccc2)n1)[C@@H](C)O)B(O)O
Response given: no

Challenge: Repeat with COc1cc2c3cc1Oc1c(OC)c(OC)cc4c1[C@@H](Cc1ccc(O)c(c1)Oc1ccc(cc1)C[C@@H]3N(C)CC2)N(C)CC4
Response given: yes
